Tested on: T-47D breast
Experiment Description: NCI-60 one-dose screen, 48 h (100 = growth as untreated, 0 = no growth, -100 = all killed)
Measurement Parameters: 10 µM unless noted
Compounds without any hit were thinned out: in the full panel of roughly 83,000, 20% have a hit.
Rule: growth below 60% gives True, anything at or above gives False.

- Compound: "C=C1C(=O)O[C@H]2[C@H]1CC/C(COC(=O)c1cccnc1)=C\\CC[C@@]1(C)O[C@@H]21"
  Assigned Category: "True"
- Compound: "COc1ccc2[nH]c(=O)c(/C=C/C(=O)/C=C/c3ccc(O)c(OC)c3)cc2c1"
  Assigned Category: "True"
- Compound: "S=C(Nc1ccccc1)c1ccccn1"
  Assigned Category: "False"
- Compound: "Cc1nc2sc(C(=O)Nc3ccccc3Cl)c(N)c2cc1C(C)O (stereo unspecified)"
  Assigned Category: "False"
- Compound: "C=C1C(=O)O[C@H]2[C@H]1CC/C(COC(=O)n1ccnc1)=C\\CC[C@@]1(C)O[C@@H]21"
  Assigned Category: "False"
- Compound: "COc1ccccc1Nc1nnc(-c2ccc(Cl)cc2)o1"
  Assigned Category: "True"
